Can you tell me kinase still bound, per cent of control for the items I'm about to list?
measured-target: UniProt:Q9NYL2
Sequence (Q9NYL2 whole entry, looked up): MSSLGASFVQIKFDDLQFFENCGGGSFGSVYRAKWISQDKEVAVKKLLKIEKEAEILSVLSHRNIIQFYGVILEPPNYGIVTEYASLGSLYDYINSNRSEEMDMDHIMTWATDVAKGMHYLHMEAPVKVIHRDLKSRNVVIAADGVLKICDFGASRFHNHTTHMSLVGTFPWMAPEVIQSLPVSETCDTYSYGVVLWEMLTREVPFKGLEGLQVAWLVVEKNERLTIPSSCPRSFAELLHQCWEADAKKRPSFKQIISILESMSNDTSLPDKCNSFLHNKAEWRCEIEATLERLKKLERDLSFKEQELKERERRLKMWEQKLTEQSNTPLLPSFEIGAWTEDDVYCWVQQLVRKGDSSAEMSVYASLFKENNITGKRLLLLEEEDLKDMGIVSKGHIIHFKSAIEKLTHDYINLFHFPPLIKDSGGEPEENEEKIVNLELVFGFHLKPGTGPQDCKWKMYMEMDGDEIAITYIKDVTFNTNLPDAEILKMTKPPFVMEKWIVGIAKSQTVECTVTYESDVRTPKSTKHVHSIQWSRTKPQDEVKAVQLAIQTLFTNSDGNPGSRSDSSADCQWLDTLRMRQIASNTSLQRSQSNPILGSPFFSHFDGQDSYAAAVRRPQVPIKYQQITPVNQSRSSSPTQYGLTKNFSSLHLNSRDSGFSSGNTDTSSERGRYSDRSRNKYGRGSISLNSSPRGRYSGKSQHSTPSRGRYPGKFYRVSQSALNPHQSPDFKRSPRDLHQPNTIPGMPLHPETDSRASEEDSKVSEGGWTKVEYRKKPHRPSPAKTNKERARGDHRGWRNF
test-method-notes: KINOMEscan competition binding
reported-conditions: compound 10.0 µM
Write down the value, and be sure its unit follows.

Entry N=C1NC(=O)/C(=C/c2ccc(-c3cncc4ccccc34)o2)S1 has what kinase still bound, per cent of control?
23%

Endpoint output: kinase still bound, per cent of control of COc1cc(N2CCN(C)CC2)ccc1Nc1ncc2c(n1)N(C)c1ccccc1N(C)C2=O . Value?
100%

Suppose we examine the compound O=C1NC(=O)/C(=C/c2c[nH]c(=O)c(-c3ccc(N4CCNCC4)nc3)c2)S1 ; what kinase still bound, per cent of control value has been reported?
92%

Name the recorded kinase still bound, per cent of control for COc1cc(N2CCC(O)CC2)ccc1Nc1ncc2c(n1)N1CCc3cccc(c31)C(=O)N2C .
100%

GET /values?readout=kinase still bound, per cent of control&item= CS(=O)(=O)Nc1ccc(-c2cncc(/C=C3\SC(=N)NC3=O)c2)cc1
7.6%

State the recorded kinase still bound, per cent of control for this entry: COc1cc(N2CCN(C)CC2)ccc1Nc1ncc2c(n1)N(C)c1sccc1C(=O)N2C
97%

# get_value(readout='kinase still bound, per cent of control', item= O=C1NC(=S)S/C1=C\c1ccc(-c2cncc3ccccc23)o1 )
31%

Which kinase still bound, per cent of control is listed for COc1cc(N2CCN(C)CC2)ccc1Nc1ncc2c(n1)Nc1ccccc1NC2=O ?
100%

kinase still bound, per cent of control for CN1C(=O)c2ccccc2N(C)c2nc(Nc3ccc(N4CCC(O)CC4)cc3)ncc21 ?
100%

kinase still bound, per cent of control for CN1CCN(c2ccc(C(=O)Nc3ncc4c(n3)N(C)c3ccccc3C(=O)N4C)cc2)CC1 ?
100%

Request the reported kinase still bound, per cent of control associated with CN1C(=O)c2ccccc2N(C)c2nc(NS(=O)(=O)c3ccc(N)cc3)ncc21
100%

----------
measured-target: MAP3K7 (human)
test-method-notes: KINOMEscan competition binding
reported-conditions: compound 10.0 µM
Mark Fulfilled only when kinase still bound, per cent of control stays strictly below 80%. Values equal to the cut-off are Not fulfilled.

Please determine if N=C1NC(=O)/C(=C/c2ccc(-c3ccc4c(C(=O)Nc5ccc(N6CCNCC6)cc5)cccc4c3)o2)S1 is below 80% in terms of kinase still bound, per cent of control.
Fulfilled

Is 80% strictly greater than the molecule's reported kinase still bound, per cent of control? molecule: Cc1cn(-c2cc(NC(=O)c3cccc4cc(-c5ccc(/C=C6\SC(=N)NC6=O)o5)ccc34)cc(C(F)(F)F)c2)cn1
Fulfilled

Does the reported kinase still bound, per cent of control of O=C1NC(=S)S/C1=C\c1ccc(-c2cncc3ccccc23)o1 stay below 80%?
Fulfilled

In the record for N=C1NC(=O)/C(=C/c2ccc(-c3ccc(C(=O)Nc4ccc(N5CCNCC5)cc4)cc3O)o2)S1 , is kinase still bound, per cent of control less than 80%?
Fulfilled

Strictly below 80% in kinase still bound, per cent of control? COc1cc(N2CCC(O)CC2)ccc1Nc1ncc2c(n1)N1CCc3cccc(c31)C(=O)N2C
Not fulfilled

I'd appreciate it if you could check whether N=C1NC(=O)/C(=C/c2ccc(-c3cccc4cc[nH]c34)o2)S1 has kinase still bound, per cent of control smaller than 80%.
Fulfilled

Say whether its kinase still bound, per cent of control is strictly beneath 80%. Entry: CS(=O)(=O)Nc1ccc(-c2cc(/C=C3\SC(=N)NC3=O)c[nH]c2=O)cc1
Fulfilled

Field: below-cutoff. Rule: recorded kinase still bound, per cent of control strictly less than 80%. Subject: O=C1NC(=O)/C(=C/c2c[nH]c(=O)c(-c3ccc(N4CCNCC4)nc3)c2)S1
Not fulfilled

Confirm or reject: kinase still bound, per cent of control of CSC1=NC(=O)/C(=C/c2c[nH]c(=O)c(-c3ccc(NS(C)(=O)=O)cc3)c2)S1 lies strictly below 80%
Fulfilled

A record lists N=C1NC(=O)/C(=C/c2ccc(-c3cnc4ccccc4c3)o2)S1 . Is its kinase still bound, per cent of control below 80%?
Fulfilled

Does CN1C(=O)c2ccccc2N(C)c2nc(Nc3ccc(N4CCC(O)CC4)cc3)ncc21 have kinase still bound, per cent of control strictly under 80%?
Fulfilled

Determine if CN1C(=O)c2ccccc2N(C)c2nc(NS(=O)(=O)c3ccc(N)cc3)ncc21 shows kinase still bound, per cent of control strictly lower than 80%.
Not fulfilled

In the record for CN1C(=O)[C@H]2CCC[C@H]2N(C2CCCC2)c2nc(Nc3ccc(C(N)=O)cc3)ncc21 , is kinase still bound, per cent of control less than 80%?
Fulfilled

Confirm or reject: kinase still bound, per cent of control of COc1cc(N2CCN(C)CC2)ccc1Nc1ncc2c(n1)Nc1ccccc1NC2=O lies strictly below 80%
Not fulfilled

Determine if CS(=O)(=O)Nc1ccc(-c2cncc(/C=C3\SC(=N)NC3=O)c2)cc1 shows kinase still bound, per cent of control strictly lower than 80%.
Fulfilled

Lab note: kinase still bound, per cent of control threshold 80%. Does this molecule come in strictly under it? CN1CCN(c2ccc(C(=O)Nc3ncc4c(n3)N(C)c3ccccc3C(=O)N4C)cc2)CC1
Not fulfilled

Field: below-cutoff. Rule: recorded kinase still bound, per cent of control strictly less than 80%. Subject: COc1cc(N2CCN(C)CC2)ccc1Nc1ncc2c(n1)N(C)c1ccccc1N(C)C2=O
Not fulfilled

----------
measured-target: NUAK2 (human) (UniProt Q9H093)
Sequence (Q9H093 whole entry, looked up): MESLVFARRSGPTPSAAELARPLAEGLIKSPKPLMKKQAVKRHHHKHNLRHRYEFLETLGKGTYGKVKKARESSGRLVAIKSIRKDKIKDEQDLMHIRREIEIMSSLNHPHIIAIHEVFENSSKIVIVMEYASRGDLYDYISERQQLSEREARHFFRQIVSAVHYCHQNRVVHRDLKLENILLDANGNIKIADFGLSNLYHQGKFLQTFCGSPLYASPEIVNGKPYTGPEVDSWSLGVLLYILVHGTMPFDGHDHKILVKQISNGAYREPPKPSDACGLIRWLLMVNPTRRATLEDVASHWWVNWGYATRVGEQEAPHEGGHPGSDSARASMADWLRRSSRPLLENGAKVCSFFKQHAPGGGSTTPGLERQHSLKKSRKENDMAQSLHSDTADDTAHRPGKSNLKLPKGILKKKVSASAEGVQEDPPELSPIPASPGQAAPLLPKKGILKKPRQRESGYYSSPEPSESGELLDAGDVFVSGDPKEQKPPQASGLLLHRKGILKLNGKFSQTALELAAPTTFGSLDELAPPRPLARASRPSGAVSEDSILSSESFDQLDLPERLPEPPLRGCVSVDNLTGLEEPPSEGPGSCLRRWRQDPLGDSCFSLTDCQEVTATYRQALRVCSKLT
test-method-notes: KINOMEscan competition binding
reported-conditions: compound 10.0 µM
Record form. Attribute: kinase still bound, per cent of control. Fill in for each entry.
Please respond with the number in % and leave the unit unwritten.

Dear colleague, I am looking for the recorded kinase still bound, per cent of control of the following compound: COc1cc(N2CCN(C)CC2)ccc1Nc1ncc2c(n1)N(C)c1ccccc1C(=O)N2C
14

Give the measured kinase still bound, per cent of control of CN1CCN(c2ccc(C(=O)Nc3ncc4c(n3)N(C)c3ccccc3C(=O)N4C)cc2)CC1 .
100

Record request: kinase still bound, per cent of control value, item CN1C(=O)c2ccccc2N(C)c2nc(Nc3ccc(N4CCC(O)CC4)cc3)ncc21
23

Which kinase still bound, per cent of control is reported for this compound? CSC1=NC(=O)/C(=C/c2c[nH]c(=O)c(-c3ccc(NS(C)(=O)=O)cc3)c2)S1
32

Return reported kinase still bound, per cent of control; argument: COc1cc(N2CCN(C)CC2)ccc1Nc1ncc2c(n1)N(C)c1ccccc1N(C)C2=O
100

I would be grateful if you could share the reported kinase still bound, per cent of control for CN1C(=O)c2ccccc2N(C)c2nc(Nc3ccc(N4CCC(O)CC4)cn3)ncc21 .
22

Which measured kinase still bound, per cent of control value corresponds to N=C1NC(=O)/C(=C/c2ccc(-c3cccc4cc[nH]c34)o2)S1 ?
21

Please look up its kinase still bound, per cent of control: O=C1NC(=O)/C(=C/c2c[nH]c(=O)c(-c3ccc(N4CCNCC4)nc3)c2)S1
37

Dear colleague, I am looking for the recorded kinase still bound, per cent of control of the following compound: CN1C(=O)c2ccccc2N(C)c2nc(NS(=O)(=O)c3ccc(N)cc3)ncc21
70

----------
measured-target: IGF1R (human)
test-method-notes: KINOMEscan competition binding
reported-conditions: compound 10.0 µM
quantity-measured: kinase still bound, per cent of control

Could you tell me which kinase still bound, per cent of control is on file for O=C1NC(=O)C(=Cc2ccc(-c3ccc([N+](=O)[O-])cc3)o2)C(=O)N1 ?
34%

Field request: kinase still bound, per cent of control | item: COc1cc(N2CCC(N3CCN(C)CC3)CC2)ccc1Nc1ncc2c(n1)N(C1CCCC1)C(C)CC(=O)N2C (stereo not drawn)
29%

Give its kinase still bound, per cent of control value. Item: COc1cc(N2CCN(C)CC2)ccc1Nc1ncc2c(n1)N(C)c1ccccc1N(C)C2=O
100%

Item COc1cc(N2CCN(C)CC2)ccc1Nc1ncc2c(n1)Nc1ccccc1NC2=O has what recorded kinase still bound, per cent of control?
100%

kinase still bound, per cent of control for CN1CCN(c2ccc(C(=O)Nc3ncc4c(n3)N(C)c3ccccc3C(=O)N4C)cc2)CC1 ?
100%

Bench note: what kinase still bound, per cent of control did CN1C(=O)c2ccccc2N(C)c2nc(Nc3ccc(N4CCC(O)CC4)cc3)ncc21 show?
100%

So what does the record say about kinase still bound, per cent of control for COc1cc(N2CCN(C)CC2)ccc1Nc1ncc2c(n1)N(C)c1sccc1C(=O)N2C ?
100%

# lookup: kinase still bound, per cent of control of CN1C(=O)c2ccccc2N(C)c2nc(NS(=O)(=O)c3ccc(N)cc3)ncc21
100%

Quick one: kinase still bound, per cent of control of O=C1NC(=O)/C(=C/c2c[nH]c(=O)c(-c3ccc(N4CCNCC4)nc3)c2)S1 ?
100%

What value of measured kinase still bound, per cent of control is listed for COc1cc(N2CCC(C)(O)CC2)ccc1Nc1ncc2c(n1)N(C1CCCC1)CCC(=O)N2C ?
14%

Please look up its kinase still bound, per cent of control: COc1cc(C(=O)NC2CCN(C)CC2)ccc1Nc1ncc2c(n1)N(C1CCCC1)C(C)CC(=O)N2C (stereo not drawn)
32%

I'd like to know its kinase still bound, per cent of control. The compound in question is COc1cc(C(=O)NC2CCN(C)CC2)ccc1Nc1ncc2c(n1)N(C1CCCC1)CCC(=O)N2C
20%

GET /values?readout=kinase still bound, per cent of control&item= COc1cc(N2CCC(O)CC2)ccc1Nc1ncc2c(n1)N1CCc3cccc(c31)C(=O)N2C
100%
